- measurement.target: Cholinesterase (Equus caballus, UniProt P81908)
- Sequence (P81908 whole entry): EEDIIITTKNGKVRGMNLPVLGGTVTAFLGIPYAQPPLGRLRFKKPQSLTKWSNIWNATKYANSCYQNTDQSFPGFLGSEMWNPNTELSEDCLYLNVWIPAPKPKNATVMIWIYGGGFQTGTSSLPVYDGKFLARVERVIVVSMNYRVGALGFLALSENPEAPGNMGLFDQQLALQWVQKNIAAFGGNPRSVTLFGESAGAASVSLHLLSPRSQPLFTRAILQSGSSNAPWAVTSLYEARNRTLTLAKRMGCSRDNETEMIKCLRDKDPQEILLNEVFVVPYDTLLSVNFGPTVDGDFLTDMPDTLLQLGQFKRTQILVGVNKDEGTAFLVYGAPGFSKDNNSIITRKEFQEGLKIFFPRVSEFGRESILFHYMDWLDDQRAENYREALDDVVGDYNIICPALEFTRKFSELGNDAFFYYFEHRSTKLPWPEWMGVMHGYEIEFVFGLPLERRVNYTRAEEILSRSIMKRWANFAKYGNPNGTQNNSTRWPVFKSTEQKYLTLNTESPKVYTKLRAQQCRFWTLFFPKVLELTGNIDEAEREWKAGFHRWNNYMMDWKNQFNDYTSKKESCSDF
- assay.protocol: Inhibition of equine serum BuChE using butyrylthiocholine as substrate preincubated for 8 mins followed by substrate addition by Ellman's method
pIC50 overview
Reminder that pIC50 means the negative base-10 logarithm of the concentration expressed in mol/L.

response.value for "CN(C)Cc1ccc(CSCCN2C(=O)c3cccc4cc([N+](=O)[O-])cc(c34)C2=O)o1" (field: pIC50) = 5.10

Further cases:
response.value for "CN(C)Cc1ccc(CSCCN/C(=C/[N+](=O)[O-])N/N=C/c2ccccc2)o1" (field: pIC50) = 5.53

response.value for "CN(C)Cc1ccc(CSCCNc2nnc(-c3cccs3)c(-c3cccs3)c2[N+](=O)[O-])o1" (field: pIC50) = 5.64

response.value for "CCc1nnc(NCCSCc2ccc(CN(C)C)o2)c([N+](=O)[O-])c1CC" (field: pIC50) = 4.73

response.value for "Cc1ccc(S(=O)(=O)NCCSCc2ccc(CN(C)C)o2)cc1" (field: pIC50) = 4.33

response.value for "CN(C)Cc1ccc(CSCCN2C(=O)c3cccc4cccc(c34)C2=O)o1" (field: pIC50) = 5.14

response.value for "Cc1c(-c2ccccc2)nnc(NCCSCc2ccc(CN(C)C)o2)c1[N+](=O)[O-]" (field: pIC50) = 5.43

response.value for "CN(C)Cc1ccc(CSCCNc2ncccn2)o1" (field: pIC50) = 5.12

response.value for "C=C1C(C)=NN/C(=C\[N+](=O)[O-])N1CCSCc1ccc(CN(C)C)o1" (field: pIC50) = 5.15

response.value for "CN(C)Cc1ccc(CSCCN2C(=O)c3ccccc3C2=O)o1" (field: pIC50) = 4.84
